study_target: Relaxin-3 receptor 1 (Homo sapiens, UniProt Q9NSD7)
Sequence (Q9NSD7 whole entry): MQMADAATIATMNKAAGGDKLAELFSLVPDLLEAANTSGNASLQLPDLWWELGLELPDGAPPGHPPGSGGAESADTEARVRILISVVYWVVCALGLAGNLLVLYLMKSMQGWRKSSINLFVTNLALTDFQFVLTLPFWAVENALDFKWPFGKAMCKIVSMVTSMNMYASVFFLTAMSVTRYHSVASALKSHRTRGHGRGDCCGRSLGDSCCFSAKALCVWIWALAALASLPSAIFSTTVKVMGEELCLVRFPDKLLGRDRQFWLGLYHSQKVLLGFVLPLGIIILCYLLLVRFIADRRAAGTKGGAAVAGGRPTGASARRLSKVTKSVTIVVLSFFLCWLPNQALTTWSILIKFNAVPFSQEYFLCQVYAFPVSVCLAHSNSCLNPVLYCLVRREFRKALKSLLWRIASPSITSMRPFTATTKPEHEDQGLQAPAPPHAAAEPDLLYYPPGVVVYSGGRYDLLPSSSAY
pKi: −log10 of the molar value.
reported_endpoint: pKi

H-RAAPYGVRLSGREFIRAVIFTSR-NH2 ... 7.95

// provenance: ChEMBL document CHEMBL5154921
